endpoint-name: melting point

The cases that follow already have their melting point on record.
> print(dat)
                                   molecule  endpoint.name  endpoint.value
1  CC(C)(C)O[C@@H]1C[C@H]2C(=O)O[C@H](C(Cl)(Cl)Cl)N2C1  melting point          147 °C
2  CCOP(=O)(/C=C/c1cn(-c2ccccc2)nc1OCc1ccc(OCc2nc(-c3ccco3)oc2C)c(C(=O)OC)c1)OCC  melting point     92 to 93 °C
3                  Cc1cc(NC(=O)CC#N)nc(C)n1  melting point          178 °C
4                COc1ccc(-c2oncc2CCCO)cc1OC  melting point     55 to 56 °C
5      Nc1ccc(O)c(C(=O)Nc2cccc3[nH]ccc23)c1  melting point        > 260 °C

### Prompt Dear colleague, I am looking for the recorded melting point of the following molecule: `S=C(Nc1ccc(Cl)cc1)NC12CC3CC(CC(C3)C1)C2`
### Response 185 °C

### Prompt Which measured melting point value corresponds to `CCCc1nnc(Cc2ccc(N)cc2)o1` ?
### Response 60 to 61 °C

### Prompt Item under review: Cc1c(C)c2c(c(C)c1NC(=O)CC(C)(C)C)OCC2c1ccc(C(C)C)cc1 (stereo unspecified) . Reported melting point?
### Response 214 to 215 °C

* * *

endpoint-name: melting point

Use these answered entries as a reference point.
> print(dat)
                                   compound  endpoint.value
1  N[C@H]1C[C@H]2[C@H](C(=O)O)[C@H]2[C@]1(N)C(=O)O        > 250 °C
2  COc1cc(C)c(C(=O)c2c(OC)ccc(Br)c2Cl)c(OC)c1OC     87 to 88 °C
3  COc1ccc(-c2cnc(N3CCc4c([nH]c5ccccc45)C3c3ccc4c(c3)OCO4)nc2)cc1OC (stereo not given)   173 to 175 °C
4  Cc1ccc(NC(=O)N2C(=S)C3(CCCCC3)NC23CCCCC3)cc1   127 to 129 °C

### Prompt Can you look up the measured melting point of `COc1ccc(-c2nc(N)nc(NC(=O)c3cccnc3)n2)c2ccccc12` for me?
### Response 208 to 209 °C

### Prompt Returns the measured melting point for the input compound. Input: `N#CCCOc1cccc(OCCC#N)c1`
### Response 109 to 110 °C

### Prompt Fill in: melting point of `CCCNC(=O)NNC(=O)c1ccc(OC)cc1` is ___
### Response 176 to 179 °C

### Prompt # query: melting point of entry `CC1=Nc2c(Br)cc(Br)cc2S(=O)(=O)N1`
### Response 287 to 289 °C

### Prompt Given `COC(=O)C(c1ccc(Cl)cc1)(c1ccc(Cl)cc1)c1ncc[nH]1` , state its recorded melting point.
### Response 132 °C

### Prompt Bench note: what melting point did CN1C(=O)N2CCOC2(c2ccccc2)c2cc(Cl)ccc21 (stereo not given) show?
### Response 124 to 125 °C

* * *

// reported melting point for each item listed

Worked cases, answers included:
> print(dat)
                                   molecule  endpoint.value
1    CC1(C)Cc2c(F)cccc2C(c2cnc3ccccc3c2)=N1    97 to 100 °C
2  CC(C)(C)OC(=O)N1CC2(C[C@H]1C(=O)OCOC(=O)C(C)(C)C)SCCS2   79.5 to 81 °C
3  COc1ccc(C(=O)C=Cc2ccccc2[N+](=O)[O-])c(OC)c1OC   107 to 108 °C
4  CCCCCCCC(O)C(O)Cc1cc(C(N)=O)ccc1C(N)=O (stereo unspecified)          118 °C
5  Cc1cc(C2=Nn3cc(C(F)(F)F)nc3SC2c2ccc(F)cc2)cc2c1OCC(=O)N2 (stereo unspecified)   136 to 138 °C
6  CC(=O)NC1CCC2=C(CC1)C(=O)C(=CC(=O)O)C=C2 (stereo unspecified)   240 to 243 °C
7   CCCCc1nc2c(N)nc3ccccc3c2n1CCCNC(=S)NCCC   144 to 146 °C
8  COc1cc(-c2cnc3[nH]cc(C(=O)CC(C)C)c3n2)cc(OC)c1OC   210 to 211 °C

Turning now to a further record.
### Prompt Quick one: melting point for `Oc1ccc(Cl)cc1C1(O)CCCCC1` ?
### Response 110 °C

Hey, just so you know, these numbers are from a melting point compilation (Tetko et al.; mined from patent text by program, amines drawn as free bases though some values may be those of a salt).
